In this section, each of the binders is paired with its reported interaction score.
# tgt: T1, 4H4001-bA
# T1 chain: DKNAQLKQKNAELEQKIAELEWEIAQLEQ
# experiment.description: two-hybrid library CCNG1;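 note: natural log of median RNA to DNA barcode read ratio; higher means stronger binding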
reported.metric: interaction score

• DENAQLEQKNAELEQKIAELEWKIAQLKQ [4H1446-bA] = 1.86
• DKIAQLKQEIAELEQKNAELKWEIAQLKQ [4H2618-bA] = 0.142
• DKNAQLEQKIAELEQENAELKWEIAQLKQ [4H3354-bA] = -0.362
• DKNAQLEQKIAELEQKNAELEWKIAQLEQ [4H3381-bA] = -0.563
• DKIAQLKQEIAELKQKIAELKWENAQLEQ [4H2667-bA] = 1.02
• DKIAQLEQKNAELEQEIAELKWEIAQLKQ [4H2442-bA] = 0.5
